System: Plasmodium berghei (Pb-Luc) exoerythrocytic-stage parasites
assay_info: microbe, parasite or virus in culture
settings: read-out: Inhibition% @ 50 uM rep2
measured_attribute: inhibition at 50 µM
// return the numeric value with its unit appended

**Query** Form field: reported inhibition at 50 µM of `Oc1ccc2ccccc2c1CNc1nc2ccccc2[nH]1`
**Result** 101%

**Query** Form field: reported inhibition at 50 µM of `COc1ccc2sc(N(Cc3cccnc3)C(=O)c3ccc(C#N)cc3)nc2c1`
**Result** 85%

**Query** Form field: reported inhibition at 50 µM of `CCCN(CCC)CCCNC(=O)c1cc2c(-c3ccc(OC)c(OC)c3)nn(C)c2s1`
**Result** 106%

**Query** Form field: reported inhibition at 50 µM of `COc1cccc(Nc2nc(N)c3ccccc3n2)c1`
**Result** 99%

**Query** Form field: reported inhibition at 50 µM of `CCOc1ccc(CCNC(=O)c2cccs2)cc1OCC`
**Result** 106%

**Query** Form field: reported inhibition at 50 µM of `COc1ccc(-c2cc(=O)oc3c4c(ccc23)OCN(Cc2ccc(F)cc2)C4)cc1`
**Result** 101%

**Query** Form field: reported inhibition at 50 µM of CCCCCCc1cc(O)c2c3c(c(=O)oc2c1)CCC(C)C3 (stereo not drawn)
**Result** 104%

**Query** Form field: reported inhibition at 50 µM of O=C(NC(c1ccccc1)c1ccc2cccnc2c1O)c1ccccc1 (stereo not drawn)
**Result** 102%

**Query** Form field: reported inhibition at 50 µM of CSC1=NC(=Nc2c(C)cccc2C)C2(CCC(C(C)(C)C)CC2)N1c1ccc(Cl)cc1 (stereo not drawn)
**Result** 106%

---

Please respond with reported inhibition at 50 µM for every item in the list.
System: Plasmodium berghei (Pb-Luc) exoerythrocytic-stage parasites
assay_info: microbe, parasite or virus in culture
settings: read-out: Inhibition% @ 50 uM rep2

**Query** inhibition at 50 µM of O=C1CC(O)(C(F)(F)C(F)(F)F)Oc2ccccc21 (centres unmarked) on Plasmodium berghei (Pb-Luc) exoerythrocytic-stage parasites?
**Result** 105%

**Query** inhibition at 50 µM of `O=C(CSc1ccc2nnc(-c3cccc(F)c3)n2n1)Nc1ccc2c(c1)OCO2` on Plasmodium berghei (Pb-Luc) exoerythrocytic-stage parasites?
**Result** -48%

**Query** inhibition at 50 µM of `O=C(Nc1ccc(Cl)c(Cl)c1)Nc1ccc(Cl)c(Cl)c1` on Plasmodium berghei (Pb-Luc) exoerythrocytic-stage parasites?
**Result** 104%

**Query** inhibition at 50 µM of CCCN(CCC)CC(O)COc1ccccc1C(=O)Nc1ccccc1 (centres unmarked) on Plasmodium berghei (Pb-Luc) exoerythrocytic-stage parasites?
**Result** 75%

**Query** inhibition at 50 µM of `Cc1cccc(Nc2nc(N)c3ccccc3n2)c1` on Plasmodium berghei (Pb-Luc) exoerythrocytic-stage parasites?
**Result** 98%

**Query** inhibition at 50 µM of `CCOc1ccc(Nc2c3ccccc3nc3ccccc23)cc1` on Plasmodium berghei (Pb-Luc) exoerythrocytic-stage parasites?
**Result** 104%

**Query** inhibition at 50 µM of `O=C(Nc1ccc(-c2nc3ccccc3[nH]2)cc1)c1ccc(Cl)c(Cl)c1` on Plasmodium berghei (Pb-Luc) exoerythrocytic-stage parasites?
**Result** -66%

**Query** inhibition at 50 µM of COc1ccc(C(=O)C(CCC(CNC(C)(C)C)C(=O)c2ccc(OC)cc2)CNC(C)(C)C)cc1 (centres unmarked) on Plasmodium berghei (Pb-Luc) exoerythrocytic-stage parasites?
**Result** 104%

**Query** inhibition at 50 µM of `CC(=O)Nc1nnc(SCc2c(C)cc(C(C)(C)C)cc2C)s1` on Plasmodium berghei (Pb-Luc) exoerythrocytic-stage parasites?
**Result** 105%

**Query** inhibition at 50 µM of `COc1ccc(-c2nonc2NC(=O)c2cccc(C)c2)cc1OC` on Plasmodium berghei (Pb-Luc) exoerythrocytic-stage parasites?
**Result** 13%

**Query** inhibition at 50 µM of CCOc1cc2c(cc1OCC)C(c1cc(OC)c(O)cc1Cl)NCC2 (centres unmarked) on Plasmodium berghei (Pb-Luc) exoerythrocytic-stage parasites?
**Result** 100%

**Query** inhibition at 50 µM of `COc1ccc(C=C2SC(Nc3ccccc3)=NC2=O)cc1` on Plasmodium berghei (Pb-Luc) exoerythrocytic-stage parasites?
**Result** 103%

**Query** inhibition at 50 µM of `COc1cccc(NC(=O)[C@H](C(C)C)n2c(=O)[nH]c3ccccc3c2=O)c1` on Plasmodium berghei (Pb-Luc) exoerythrocytic-stage parasites?
**Result** 102%

**Query** inhibition at 50 µM of `CNCCCNc1ccnc2cc(Cl)ccc12` on Plasmodium berghei (Pb-Luc) exoerythrocytic-stage parasites?
**Result** 105%

**Query** inhibition at 50 µM of `FC(F)(F)c1ccc(Nc2nnnc3ccccc23)cc1` on Plasmodium berghei (Pb-Luc) exoerythrocytic-stage parasites?
**Result** 101%

**Query** inhibition at 50 µM of `CN(C)CCCNc1c2ccccc2nc2ccccc12` on Plasmodium berghei (Pb-Luc) exoerythrocytic-stage parasites?
**Result** 106%

**Query** inhibition at 50 µM of CC(NCc1ccccc1)c1cc(Cl)ccc1O (centres unmarked) on Plasmodium berghei (Pb-Luc) exoerythrocytic-stage parasites?
**Result** 100%

**Query** inhibition at 50 µM of `O=C(c1ccccc1F)N(Cc1ccc(Cl)cc1)c1ccccn1` on Plasmodium berghei (Pb-Luc) exoerythrocytic-stage parasites?
**Result** 98%

**Query** inhibition at 50 µM of `Oc1ccc(Br)cc1CN1CCN(Cc2cccc(F)c2)CC1` on Plasmodium berghei (Pb-Luc) exoerythrocytic-stage parasites?
**Result** 92%

**Query** inhibition at 50 µM of `COc1ccc(OC)c(C2C3=C(CC(C)(C)CC3=O)N(c3ccc(Cl)c(Cl)c3)C3=C2C(=O)CC(C)(C)C3)c1` on Plasmodium berghei (Pb-Luc) exoerythrocytic-stage parasites?
**Result** -11%
